- System: S. aureus 241
- ASSAY_NOTES: Minimum Inhibitory Concentration (MIC), agar dilution, standard strains
- Format: cell-based, Staphylococcus aureus
- ASSAY_SETUP: Table 1; Mueller-Hinton agar, 37° C., 20 hours
MEASURED_PROPERTY: Minimum Inhibitory Concentration (MIC), S. aureus 241

COMPOUND: Nc1nc(SCSC2=C(C(=O)O)N3C(=O)[C@@H](NC(=O)CSc4cc(Cl)ccc4Cl)[C@H]3SC2)c2c([n+]1N)CCC2 [Example I-11]
TESTED_TARGET: S. aureus 241
TEST_VALUE: 1 :g/ml

COMPOUND: Nc1cc(SCSC2=C(C(=O)O)N3C(=O)[C@@H](NC(=O)CNc4cc(Cl)ccc4Cl)[C@H]3SC2)nc(N)n1 [Example I-5]
TESTED_TARGET: S. aureus 241
TEST_VALUE: 8 :g/ml

COMPOUND: CCSc1nc(C)cc(SCSC2=C(C(=O)O)N3C(=O)[C@@H](NC(=O)CSc4cc(Cl)ccc4Cl)[C@H]3SC2)n1 [Example I-12]
TESTED_TARGET: S. aureus 241
TEST_VALUE: 4 :g/ml

COMPOUND: Nc1cc[n+](N)c(SCSC2=C(C(=O)O)N3C(=O)[C@@H](NC(=O)CSc4cc(Cl)ccc4Cl)[C@H]3SC2)n1 [Example I-7]
TESTED_TARGET: S. aureus 241
TEST_VALUE: 2 :g/ml

COMPOUND: CN(CC(=O)N[C@@H]1C(=O)N2C(C(=O)O)=C(SCSc3cc(N)nc(N)n3)CS[C@H]12)c1cc(Cl)ccc1Cl [Example I-6]
TESTED_TARGET: S. aureus 241
TEST_VALUE: 8 :g/ml

Minimum Inhibitory Concentration (MIC), S. aureus 241 reading for Nc1nc(SCSC2=C(C(=O)O)N3C(=O)[C@@H](NC(=O)CSc4cc(Cl)ccc4Cl)[C@H]3SC2)nc2cn[nH]c12 [Example I-13] : 2 :g/ml

###

The entries below come with measured Minimum Inhibitory Concentration (MIC), S. aureus 77 values attached.
- Test system: S. aureus 77
- ASSAY_NOTES: Minimum Inhibitory Concentration (MIC), agar dilution, standard strains
- Type: cell-based, Staphylococcus aureus
- ASSAY_SETUP: Table 1; Mueller-Hinton agar, 37° C., 20 hours

Would you please look over these solved cases?
COMPOUND_STRUCTURE_STRING: Cc1c(N)nc(SCSC2=C(C(=O)O)N3C(=O)[C@@H](NC(=O)CSc4cc(Cl)ccc4Cl)[C@H]3SC2)nc1N
TEST_VALUE: 0.25 :g/ml

COMPOUND_STRUCTURE_STRING: CNc1[n+](C)c(N)nc(SCSC2=C(C(=O)O)N3C(=O)[C@@H](NC(=O)CSc4cc(Cl)ccc4Cl)[C@H]3SC2)[n+]1N
TEST_VALUE: 4 :g/ml

Minimum Inhibitory Concentration (MIC), S. aureus 77 reading for `CN(CC(=O)N[C@@H]1C(=O)N2C(C(=O)O)=C(SCSc3cc(N)nc(N)n3)CS[C@H]12)c1cc(Cl)ccc1Cl` : 0.5 :g/ml

###

- Tested on: Staphylococcus aureus giorgio
- ASSAY_NOTES: Minimum Inhibitory Concentration (MIC), agar dilution, standard strains
- Format: cell-based
- ASSAY_SETUP: Staphylococcus aureus; Table 1; Mueller-Hinton agar, 37° C., 20 hours; read-out: Minimum Inhibitory Concentration (MIC), Staphylococcus aureus giorgio
MEASURED_PROPERTY: MIC

Would you please look over these solved cases?
COMPOUND: Nc1ncnc(SCSC2=C(C(=O)O)N3C(=O)[C@@H](NC(=O)CSc4cc(Cl)ccc4Cl)[C@H]3SC2)c1N [Example I-17]
MIC: 16 ng/mL

COMPOUND: Nc1cc(SCSC2=C(C(=O)O)N3C(=O)[C@@H](NC(=O)CSc4cc(Cl)ccc4Cl)[C@H]3SC2)nc(O)n1 [Example I-4]
MIC: < 8 ng/mL

COMPOUND: Nc1nc(O)cc(SCSC2=C(C(=O)O)N3C(=O)[C@@H](NC(=O)CSc4cc(Cl)ccc4Cl)[C@H]3SC2)n1 [Example I-2]
MIC: < 8 ng/mL

COMPOUND: CSc1nc(C)cc(SCSC2=C(C(=O)O)N3C(=O)[C@@H](NC(=O)CSc4cc(Cl)ccc4Cl)[C@H]3SC2)n1 [Example I-22]
MIC: < 8 ng/mL

MIC reading for Nc1cc(N)nc(SCSC2=C(C(=O)O)N3C(=O)[C@@H](NC(=O)CSc4cc(Cl)ccc4Cl)[C@H]3SC2)n1 [Example I-16] : < 8 ng/mL

MIC reading for Nc1cc(SCSC2=C(C(=O)O)N3C(=O)[C@@H](NC(=O)CSc4cc(Cl)ccc4Cl)[C@H]3SC2)nc(N)n1 [Example I-1] : < 8 ng/mL

MIC reading for Nc1nc(O)cc(SCSC2=C(C(=O)O)N3C(=O)[C@@H](NC(=O)CSc4c(Cl)cccc4Cl)[C@H]3SC2)n1 [Example I-3] : < 8 ng/mL

Reference for the values: patent US20030166922A1
